- ASSAY_PROTOCOL: in vivo
- CONDITION_DESCRIPTION: male, SD, rat, po, 2 mg/kg, Cmax, Mean
REPORTED_PROPERTY: Cmax (ng/mL)

COMPOUND | OBSERVED_VALUE
Nc1ncn([C@H]2C[C@H](O)[C@@H](CO)S2)c(=O)n1 [Form F, 5-Aza-4′-thio-2′-deoxycytidine] | 934

====

- ASSAY_PROTOCOL: in vivo
- CONDITION_DESCRIPTION: male, SD, rat, po, 2 mg/kg, T1/2, Mean
REPORTED_PROPERTY: half-life (min)

COMPOUND | REPORTED_PROPERTY | OBSERVED_VALUE
Nc1ncn([C@H]2C[C@H](O)[C@@H](CO)S2)c(=O)n1 [Form F, 5-Aza-4′-thio-2′-deoxycytidine] | half-life | 180

These entries and their values trace back to patent US11447472B2.
